logP values, listed per item
TEST_METHOD_NOTES: Measurement of log P values by HPLC on reversed phase columns (methods [a] pH 2.3, [b] pH 2.7, [c] pH 7.8)
Type: physicochemical
RUN_CONDITIONS: HPLC reversed phase, method [b] (pH 2.7)

# COMPOUND, logP
rows = [
    ("O=C(N[C@@H]1CCC[C@@H]1c1ccc(C(F)(F)F)cc1)c1c(F)cccc1F (relative stereo) [Example 304]", "3.51^[b]"),
    ("Cc1nn(C)cc1C(=O)NC1CCCCC1c1ccccc1Cl (centres unmarked) [Example 377]", "2.64^[b]"),
    ("O=C(NC1CCCCC1c1c(F)cccc1F)c1ccccc1C(F)(F)F (centres unmarked) [Example 399]", "3.87^[b]"),
    ("O=C(NC1CCC1c1c(F)cccc1F)c1ccccc1I (centres unmarked) [Compound 440]", "3.13^[b]"),
    ("Cn1cc(C(=O)N[C@@H]2CC[C@@H]2c2c(F)cccc2C(F)(F)F)c(C(F)F)n1 (relative stereo) [Compound 574]", "2.91^[b]"),
    ("O=C(N[C@@H]1CC[C@H]1c1ccc(F)cc1C(F)(F)F)c1ccccc1C(F)(F)F (relative stereo) [Compound 494]", "3.72^[b]"),
    ("O=C(N[C@@H]1CC[C@@H]1c1cc(F)ccc1C(F)(F)F)c1ccc(Cl)cc1 (relative stereo) [Example 527]", "3.63^[b]"),
    ("O=C(N[C@@H]1C[C@@H]1c1ccc(Cl)cc1Cl)c1cccnc1 (relative stereo) [Example 583]", "2.06^[b]"),
]

###

TEST_METHOD_NOTES: Measurement of log P values by HPLC on reversed phase columns (methods [a] pH 2.3, [b] pH 2.7, [c] pH 7.8)
Assay type: physicochemical
RUN_CONDITIONS: method [b], HPLC reversed phase, pH 2.7

# MOLECULE, logP
measured = [
    ("Cn1nc(C(F)F)c(C(=O)N(C2CC2)C2CCCCC2c2ccccc2Cl)c1F (stereo not drawn)", "4.49^[b]"),
    ("O=C(NC1CC1c1ccc(Cl)cc1Cl)c1sccc1I (stereo not drawn)", "4.10^[b]"),
    ("Fc1ccc(C2CCCC2NC(=S)C2=C(C(F)(F)F)OCCS2)cc1F (stereo not drawn)", "4.21^[b]"),
    ("O=C(NC1CCC1c1ccccc1Cl)c1ccccc1Cl (stereo not drawn)", "3.30^[b]"),
    ("O=C(NC1CC1c1ccc(Cl)cc1Cl)c1occc1Br (stereo not drawn)", "3.56^[b]"),
    ("O=C(N[C@@H]1CCC[C@H]1c1ccc(F)c(F)c1)C1=C(C(F)(F)F)OCCS1 (relative stereo)", "3.39^[b]"),
    ("O=C(NC1CC1c1ccc(Cl)cc1Cl)c1cccnc1Cl (stereo not drawn)", "2.82^[b]"),
    ("O=C(NC1CC1c1ccc(Cl)cc1Cl)c1ccccc1Br (stereo not drawn)", "3.58^[b]"),
    ("Cn1nc(C(F)F)c(C(=O)N(C2CC2)C2CCCC2c2ccccc2Cl)c1F (stereo not drawn)", "4.31^[b]"),
]

###

Listed next: entries and their corresponding logP.
TEST_METHOD_NOTES: Measurement of log P values by HPLC on reversed phase columns (methods [a] pH 2.3, [b] pH 2.7, [c] pH 7.8)
Type: physicochemical
RUN_CONDITIONS: HPLC on reversed phase columns, method [b], pH 2.7

# COMPOUND, logP
rows = [
    ("CC(C)Oc1nn(C)cc1C(=O)N[C@@H]1CCC[C@@H]1c1ccc(F)c(F)c1 (relative stereo)", "3.27^[b]"),
    ("O=C(N[C@@H]1C[C@H]1c1ccccc1Cl)c1ccccc1C(F)(F)F (relative stereo)", "3.31^[b]"),
    ("Cc1nn(C)c(F)c1C(=O)N[C@@H]1C[C@H]1c1ccccc1 (relative stereo)", "1.99^[b]"),
    ("Cc1nn(C)cc1C(=O)NC1CC1c1ccc(Cl)cc1 (centres unmarked)", "2.63^[b]"),
    ("Cn1ccc(I)c1C(=O)N[C@@H]1CCC[C@@H]1c1ccc(F)c(F)c1 (relative stereo)", "3.83^[b]"),
    ("Cc1ncncc1C(=O)N[C@@H]1CCC[C@@H]1c1ccc(F)c(F)c1 (relative stereo)", "2.15^[b]"),
    ("O=C(N[C@@H]1CCC[C@@H]1c1ccc(F)c(F)c1)c1cnccc1C(F)(F)F (relative stereo)", "2.92^[b]"),
    ("O=C(N[C@@H]1CCC[C@@H]1c1ccc(F)c(F)c1)c1snc(Cl)c1Cl (relative stereo)", "4.19^[b]"),
    ("Cc1nn(C)c(F)c1C(=O)N[C@@H]1CCC[C@@H]1c1ccc(F)c(F)c1 (relative stereo)", "2.60^[b]"),
    ("O=C(N[C@@H]1CCC[C@@H]1c1ccc(F)c(F)c1)c1ccccc1Cc1ccccc1 (relative stereo)", "4.26^[b]"),
    ("N#Cc1ncccc1C(=O)N[C@@H]1CCC[C@@H]1c1ccc(F)c(F)c1 (relative stereo)", "3.21^[b]"),
    ("O=C(NC1CC1c1ccc(Cl)cc1)c1cccnc1Cl (centres unmarked)", "2.43^[b]"),
    ("CC(F)c1nn(C)cc1C(=O)NC1CCCC1c1ccc(F)c(F)c1 (mixture of isomers)", "2.84^[b]"),
    ("Cc1nn(C)c(F)c1C(=O)NC1CC1c1ccc(F)cc1 (centres unmarked)", "3.01^[b]"),
    ("Cc1ncc(C(=O)N[C@@H]2CCC[C@@H]2c2ccc(F)c(F)c2)s1 (relative stereo)", "2.57^[b]"),
    ("O=C(N[C@@H]1C[C@H]1c1ccccc1)c1ccccc1Cl (relative stereo)", "2.68^[b]"),
    ("O=C(NC1CC1(F)c1ccc(Cl)cc1)c1ccccc1C(F)(F)F (centres unmarked) [Example 755]", "3.03^[b]"),
    ("Cc1oncc1C(=O)N[C@@H]1CCC[C@H]1c1ccc(F)c(F)c1 (relative stereo)", "2.82^[b]"),
    ("O=C(N[C@@H]1C[C@H]1c1ccccc1Cl)c1c(Cl)cccc1Cl (relative stereo)", "3.32^[b]"),
    ("O=C(NC1CC1(F)c1ccc(Cl)cc1)c1ccccc1C(F)(F)F (centres unmarked) [Example 754]", "3.24^[b]"),
    ("O=C(NC1CCC1c1c(Cl)cccc1Cl)c1ccccc1 (centres unmarked)", "3.30^[b]"),
    ("CCCc1nn(C)c(F)c1C(=O)N[C@@H]1CCC[C@@H]1c1ccc(F)c(F)c1 (relative stereo)", "3.25^[b]"),
    ("Cn1cc(C(=O)N[C@@H]2CCC[C@@H]2c2ccc(F)c(F)c2)c(C(F)(F)F)n1 (relative stereo)", "2.98^[b]"),
    ("Cc1nn(C)cc1C(=O)NC1CC1c1ccc(F)cc1 (centres unmarked)", "2.13^[b]"),
    ("CCn1nc(C)c(C(=O)N[C@@H]2CCC[C@@H]2c2ccc(F)c(F)c2)c1F (relative stereo)", "2.92^[b]"),
    ("O=C(NC1CCC1c1ccc(Cl)cc1C(F)(F)F)c1ccccc1Br (centres unmarked) [Example 722]", "4.08^[b]"),
    ("Cc1occc1C(=O)N[C@@H]1CCC[C@@H]1c1ccc(F)c(F)c1 (relative stereo)", "3.06^[b]"),
    ("CCOc1nn(C)cc1C(=O)N[C@@H]1CCC[C@@H]1c1ccc(F)c(F)c1 (relative stereo)", "2.78^[b]"),
    ("O=C(N[C@@H]1CCC[C@@H]1c1ccc(F)c(F)c1)c1sccc1I (relative stereo)", "3.79^[b]"),
    ("O=C(N[C@@H]1CCC[C@@H]1c1ccc(F)c(F)c1)c1ccccc1I (relative stereo)", "3.31^[b]"),
    ("O=C(N[C@@H]1CCC[C@@H]1c1ccc(F)c(F)c1)c1ccccc1F (relative stereo)", "3.33^[b]"),
    ("O=C(NC1CC1c1ccccc1)c1ccncc1 (centres unmarked)", "1.30^[b]"),
]
